Can you tell me log10(IC50) for the items I'm about to list?
target: human TRPV1 (Homo sapiens, UniProt Q8NER1); assay: Block of capsaicin-induced Ca2+ influx, human assay (hTRPV1/HEK293, FLIPR); conditions: HEK293 cells transfected with human TRPV1; 150 nM capsaicin challenge; mean; > value = solubility limit in assay medium
Sequence (Q8NER1 whole entry): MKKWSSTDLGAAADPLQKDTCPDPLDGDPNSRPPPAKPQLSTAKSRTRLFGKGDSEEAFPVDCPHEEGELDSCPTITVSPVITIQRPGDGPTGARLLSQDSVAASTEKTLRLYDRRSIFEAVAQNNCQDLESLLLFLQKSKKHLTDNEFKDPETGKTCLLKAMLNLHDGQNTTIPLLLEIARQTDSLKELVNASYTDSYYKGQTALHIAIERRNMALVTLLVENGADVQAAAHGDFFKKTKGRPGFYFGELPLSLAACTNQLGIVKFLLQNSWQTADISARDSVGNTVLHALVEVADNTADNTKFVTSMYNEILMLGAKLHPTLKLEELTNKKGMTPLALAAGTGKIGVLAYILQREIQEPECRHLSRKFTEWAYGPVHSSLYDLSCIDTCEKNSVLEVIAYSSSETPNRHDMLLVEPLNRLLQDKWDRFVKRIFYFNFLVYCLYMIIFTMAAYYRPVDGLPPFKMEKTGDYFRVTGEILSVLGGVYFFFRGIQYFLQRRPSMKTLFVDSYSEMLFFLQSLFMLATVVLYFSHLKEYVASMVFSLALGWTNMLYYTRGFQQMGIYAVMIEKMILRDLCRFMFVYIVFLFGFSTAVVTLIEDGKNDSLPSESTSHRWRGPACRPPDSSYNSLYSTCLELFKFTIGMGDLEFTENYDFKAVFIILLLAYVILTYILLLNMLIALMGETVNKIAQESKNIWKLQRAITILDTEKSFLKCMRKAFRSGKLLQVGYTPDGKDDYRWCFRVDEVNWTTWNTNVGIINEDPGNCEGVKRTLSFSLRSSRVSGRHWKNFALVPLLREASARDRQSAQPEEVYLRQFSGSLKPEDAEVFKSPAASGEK
Answers are given as log10 of IC50 in nM.

Some entries whose results are on file:
Tested on human TRPV1 (Homo sapiens, UniProt Q8NER1): Clc1cccc(Cl)c1Cc1nc2c(Nc3ccc(Br)cc3)ncnc2s1 [Example 41] . Observed log10(IC50): 1.51

Tested on human TRPV1 (Homo sapiens, UniProt Q8NER1): COc1ccc(Nc2ncnc3sc(Cc4c(Cl)cccc4Cl)nc23)cc1 [Example 37] . Observed log10(IC50): 2.52

Tested on human TRPV1 (Homo sapiens, UniProt Q8NER1): FC(F)(F)c1ccc(Nc2ncnc3sc(Cc4c(Cl)cccc4Cl)nc23)nc1 [Example 94] . Observed log10(IC50): 2.97

Tested on human TRPV1 (Homo sapiens, UniProt Q8NER1): FC(F)(F)c1ccccc1Cc1nc2c(Nc3ccccc3)ncnc2s1 [Example 48] . Observed log10(IC50): 2.93

Tested on human TRPV1 (Homo sapiens, UniProt Q8NER1): CC(C)(C#N)c1ccc(Nc2ncnc3sc(Cc4c(Cl)cccc4Cl)nc23)cc1 [Example 42] . Observed log10(IC50): 2.00

Tested on human TRPV1 (Homo sapiens, UniProt Q8NER1): CS(=O)(=O)c1ccc(Nc2ncnc3sc(Cc4ccccc4C(F)(F)F)nc23)cc1 [Example 51] . Observed log10(IC50): 2.31

Please examine the following record next.
Tested on human TRPV1 (Homo sapiens, UniProt Q8NER1): FC(F)(F)c1ccc(Nc2ncnc3sc(Cc4ccc(Cl)cc4)nc23)cc1 [Example 35] . Observed log10(IC50): 2.99

---

biological target: rat TRPV1 (Rattus norvegicus, UniProt O35433); construct: expressed in transfected cells; host or cells: HEK293; assay: Block of capsaicin-induced Ca2+ influx, rat assay (rTRPV1/HEK293, FLIPR); format: cell-based; conditions: HEK293 cells transfected with rat TRPV1; capsaicin challenge; mean; > value = solubility limit in assay medium; read-out: Rat IC50
Sequence (O35433 whole entry): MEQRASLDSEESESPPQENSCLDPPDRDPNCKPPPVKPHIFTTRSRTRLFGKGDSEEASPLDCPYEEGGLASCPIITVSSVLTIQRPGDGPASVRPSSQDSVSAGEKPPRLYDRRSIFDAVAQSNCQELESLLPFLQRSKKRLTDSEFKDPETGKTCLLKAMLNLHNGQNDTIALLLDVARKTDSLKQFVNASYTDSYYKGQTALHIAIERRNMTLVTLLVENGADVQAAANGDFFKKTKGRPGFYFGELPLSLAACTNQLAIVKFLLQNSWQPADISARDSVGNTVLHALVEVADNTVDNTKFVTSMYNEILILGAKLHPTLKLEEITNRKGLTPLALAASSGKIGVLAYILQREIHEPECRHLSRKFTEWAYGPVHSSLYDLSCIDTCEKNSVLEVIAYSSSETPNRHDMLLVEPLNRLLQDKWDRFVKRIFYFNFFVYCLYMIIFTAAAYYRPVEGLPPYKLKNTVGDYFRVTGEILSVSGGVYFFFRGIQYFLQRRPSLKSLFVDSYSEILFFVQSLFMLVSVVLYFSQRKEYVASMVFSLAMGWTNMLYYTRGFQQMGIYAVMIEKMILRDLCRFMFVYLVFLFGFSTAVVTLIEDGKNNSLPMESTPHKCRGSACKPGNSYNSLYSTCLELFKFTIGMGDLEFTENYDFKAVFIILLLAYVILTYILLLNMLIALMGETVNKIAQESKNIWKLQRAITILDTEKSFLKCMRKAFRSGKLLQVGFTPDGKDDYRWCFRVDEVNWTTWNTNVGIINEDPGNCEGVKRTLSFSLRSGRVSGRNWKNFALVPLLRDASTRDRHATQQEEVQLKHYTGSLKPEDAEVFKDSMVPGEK
Structures can show the parent of a compound that is named as a salt.
Can you tell me pIC50 for the items I'm about to list?
Answers are plain numbers, as −log10 of the molar value.

Dear reader, for each entry below, please note its pIC50.
1. Clc1cccc(Cl)c1Cc1nc2c(Nc3ccc(Br)cc3)ncnc2s1
2. CC(C)N1CCN(c2nc(Nc3ccc(C(F)(F)F)cc3)c3nc(Cc4c(Cl)cccc4Cl)sc3n2)CC1 [Example 75, trifluoroacetic acid salt]
3. CC(C)(C)c1ccc(Nc2ncnc3oc(Cc4c(Cl)cccc4Cl)nc23)cc1
4. FC(F)(F)c1ccc(Nc2nc(NC3CCC3)nc3sc(Cc4c(Cl)cccc4Cl)nc23)cc1
5. FC(F)(F)c1ccc(Nc2ncnc3sc(Cc4c(Cl)cccc4Cl)nc23)cc1Cl

7.54
6.88
7.52
7.49
7.13

Dear reader, for each entry below, please note its pIC50.
1. CC(C)Oc1nc(Nc2ccc(C(F)(F)F)cc2)c2nc(Cc3c(Cl)cccc3Cl)sc2n1
2. CC1CCCN1c1nc(Nc2ccc(C(F)(F)F)cc2)c2nc(Cc3c(Cl)cccc3Cl)sc2n1 (centres unmarked)

[7.13, 6.49]

---

target: human TRPV1 (Homo sapiens); experiment: Block of capsaicin-induced Ca2+ influx, human assay (hTRPV1/HEK293, FLIPR); details: HEK293 cells transfected with human TRPV1; 150 nM capsaicin challenge; mean; > value = solubility limit in assay medium
# note: boundary value 300 nM maps to Not fulfilled; IC50 below it maps to Fulfilled

For `CC(C)(C)c1ccc(Nc2ncnc3oc(Cc4c(Cl)cccc4Cl)nc23)cc1` , is the recorded IC50 below the cut-off of 300 nM?
Fulfilled

For `FC(F)(F)c1ccc(Nc2ncnc3oc(Cc4c(Cl)cccc4Cl)nc23)cc1` , is the recorded IC50 below the cut-off of 300 nM?
Fulfilled

Continuing:
For `CC(C)CN(CC(C)C)c1nc(Nc2ccc(C(F)(F)F)cc2)c2nc(Cc3c(Cl)cccc3Cl)sc2n1` , is the recorded IC50 below the cut-off of 300 nM?
Not fulfilled

For `CS(=O)(=O)c1nc(Nc2ccc(C(F)(F)F)cc2)c2nc(Cc3c(Cl)cccc3Cl)sc2n1` , is the recorded IC50 below the cut-off of 300 nM?
Fulfilled

For `FC(F)(F)c1ccc(Nc2ncnc3sc(Cc4ccccc4)nc23)cn1` , is the recorded IC50 below the cut-off of 300 nM?
Not fulfilled

For `Cc1cccc(C)c1Cc1nc2c(Nc3ccc(C(C)(C)C)cc3)ncnc2s1` , is the recorded IC50 below the cut-off of 300 nM?
Fulfilled

For `FC(F)(F)c1ccc(Nc2nc(N3CCOCC3)nc3sc(Cc4c(Cl)cccc4Cl)nc23)cc1` , is the recorded IC50 below the cut-off of 300 nM?
Not fulfilled

For `CC(C)(C)c1ccc(Nc2ncnc3sc(Cc4ccccc4C(F)(F)F)nc23)cc1` , is the recorded IC50 below the cut-off of 300 nM?
Fulfilled

---

molecular target: rat TRPV1 (Rattus norvegicus); construct: expressed in transfected cells; host or cells: HEK293; assay: Block of capsaicin-induced Ca2+ influx, rat assay (rTRPV1/HEK293, FLIPR); format: cell-based; conditions: HEK293 cells transfected with rat TRPV1; capsaicin challenge; mean; > value = solubility limit in assay medium; read-out: Rat IC50
Counter-ions that a name gives are not always drawn.
# note: boundary value 50 nM maps to NO; IC50 below it maps to YES

For `FC(F)(F)c1cccc(Nc2ncnc3sc(Cc4c(Cl)cccc4Cl)nc23)c1` , is the recorded IC50 below the cut-off of 50 nM?
NO

For `FC(F)(F)c1ccc(Nc2ncnc3sc(Cc4c(Cl)cccc4Cl)nc23)cn1` , is the recorded IC50 below the cut-off of 50 nM?
NO

For `Oc1ccccc1-c1ccccc1Cc1nc2c(Nc3ccc(C(F)(F)F)cc3)ncnc2s1` , is the recorded IC50 below the cut-off of 50 nM?
NO

For `FC(F)(F)c1ccc(Nc2ncnc3sc(Cc4ccccc4Cl)nc23)nc1` , is the recorded IC50 below the cut-off of 50 nM?
NO

For `FC(F)(F)c1ccc(Nc2nc(N3CCCCC3)nc3sc(Cc4c(Cl)cccc4Cl)nc23)cc1` , is the recorded IC50 below the cut-off of 50 nM?
YES

Continuing:
For FC(F)(F)c1ccc(Nc2ncnc3[nH]c(Cc4c(Cl)cccc4Cl)nc23)cc1 [Example 109, trifluoroacetic acid salt] , is the recorded IC50 below the cut-off of 50 nM?
NO

For CC(C)CN1CCN(c2nc(Nc3ccc(C(F)(F)F)cc3)c3nc(Cc4c(Cl)cccc4Cl)sc3n2)CC1 [Example 83, trifluoroacetic acid salt] , is the recorded IC50 below the cut-off of 50 nM?
YES

For `COC[C@@H]1CCCN1c1nc(Nc2ccc(C(F)(F)F)cc2)c2nc(Cc3c(Cl)cccc3Cl)sc2n1` , is the recorded IC50 below the cut-off of 50 nM?
NO

For `CS(=O)(=O)c1ccc(Nc2ncnc3sc(Cc4ccccc4C(F)(F)F)nc23)cc1` , is the recorded IC50 below the cut-off of 50 nM?
YES

For `Cc1nc(Nc2ccc(C(F)(F)F)cc2)c2nc(Cc3c(Cl)cccc3Cl)sc2n1` , is the recorded IC50 below the cut-off of 50 nM?
YES

---

target: rat TRPV1 (Rattus norvegicus, UniProt O35433); construct: expressed in transfected cells; host or cells: HEK293; test: Block of capsaicin-induced Ca2+ influx, rat assay (rTRPV1/HEK293, FLIPR); type: cell-based; settings: HEK293 cells transfected with rat TRPV1; capsaicin challenge; mean; > value = solubility limit in assay medium; read-out: Rat IC50
Counter-ions that a name gives are not always drawn.
Can you tell me IC50 for the items I'm about to list?
Answers are plain numbers, in nM.

Some entries whose results are on file:
The measured IC50 associated with Clc1ccc(Nc2ncnc3sc(Cc4c(Cl)cccc4Cl)nc23)cc1 [Example 40] reads 51

The measured IC50 associated with Cc1cccc(C)c1Cc1nc2c(Nc3ccc(C(C)(C)C)cc3)ncnc2s1 [Example 57] reads 51

The measured IC50 associated with CS(=O)(=O)c1nc(Nc2ccc(C(F)(F)F)cc2)c2nc(Cc3c(Cl)cccc3Cl)sc2n1 [Example 62] reads 32

The measured IC50 associated with FC(F)(F)c1ccc(Nc2ncnc3sc(Cc4ccc(Cl)cc4Cl)nc23)cc1 [Example 27] reads 43

The measured IC50 associated with CS(=O)(=O)c1ccc(Nc2ncnc3sc(Cc4c(Cl)cccc4Cl)nc23)cc1 [Example 13] reads 57

The measured IC50 associated with FC(F)(F)c1ccc(Nc2ncnc3sc(Cc4ccccc4-c4ccccc4)nc23)cc1 [Example 105] reads 1230

The measured IC50 associated with Cc1cccc(C)c1Cc1nc2c(Nc3ccc(Br)cc3)ncnc2s1 [Example 56] reads 475

The measured IC50 associated with FC(F)(F)c1ccc(Nc2ncnc3sc(Cc4ccc(Cl)cc4Cl)nc23)cn1 [Example 29] reads 600

The measured IC50 associated with O=S(=O)(c1ccc(Nc2ncnc3sc(Cc4c(Cl)cccc4Cl)nc23)cc1)C(F)(F)F [Example 14] reads 68

Continuing:
The measured IC50 associated with FC(F)(F)c1ccc(Nc2nc(N3CCC(N4CCCC4)CC3)nc3sc(Cc4c(Cl)cccc4Cl)nc23)cc1 [Example 77, trifluoroacetic acid salt] reads 4340
